target: c-Src kinase domain (Homo sapiens, UniProt P12931); assay: pTyr-Var library bacterial peptide display kinase screen (enrichment scores); type: biochemical; details: sheet "Src"; variant peptide versus its reference peptide in the pTyr-Var library screen;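 further: log2 fold change in enrichment of variant over reference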
Could you please report measured Screen for the items listed next?
Give bare numbers.

Field: example entries. Status: answers known.
{"columns": ["Sequence input", "Screen"],
 "data": [
  ["KGSLPYSLILD [PKD1L2_Y406_N407S]", 1.59],
  ["HITQVYGFFDE [PPP2CA_Y127_Q122H_YF]", 0.5425],
  ["KDQGIYEDFVE [MYL6_Y86_T85I_YF]", 1.232],
  ["MFNPCYGLFEF [NEDD4L_Y680_Y679C_YF]", -0.1736],
  ["VFLGAYDHFLP [SLC22A5_Y486_R488H_YF]", -0.3296]
]}

Give Screen for each of the items listed below.
1. DFPGIYSGFDD [POLR1C_Y33_N32I_YF]
2. AGIVVYNIIGW [MYH7_Y588_D587V]
3. QMIETYFDFRV [NSMF_Y506_L511V]
4. PANMVYSTVEI [SLAMF7_Y304_T302M]
5. ETEMLYGSARR [PRC1_Y464_P468R]

A.
3.694
2.236
-0.8869
0.01938
-0.8951

Here are 3 sequences. What values of Screen were reported for them?
1. FEPWVYSLSFE [PRKDC_Y647_F649L_YF]
2. EFHRLYEEFTR [PIK3R1_Y467_D464H_YF]
3. GSSKIYFLHAD [TLR5_Y108_P112A]

A.
1: 0.05044; 2: 0.07006; 3: -1.042
